Target: T1, ΔN-chordin (UniProt Q9H2X0 127-955)
T1 construct: chordin, N-terminally truncated form called ΔN-chordin
T1 sequence (looked up): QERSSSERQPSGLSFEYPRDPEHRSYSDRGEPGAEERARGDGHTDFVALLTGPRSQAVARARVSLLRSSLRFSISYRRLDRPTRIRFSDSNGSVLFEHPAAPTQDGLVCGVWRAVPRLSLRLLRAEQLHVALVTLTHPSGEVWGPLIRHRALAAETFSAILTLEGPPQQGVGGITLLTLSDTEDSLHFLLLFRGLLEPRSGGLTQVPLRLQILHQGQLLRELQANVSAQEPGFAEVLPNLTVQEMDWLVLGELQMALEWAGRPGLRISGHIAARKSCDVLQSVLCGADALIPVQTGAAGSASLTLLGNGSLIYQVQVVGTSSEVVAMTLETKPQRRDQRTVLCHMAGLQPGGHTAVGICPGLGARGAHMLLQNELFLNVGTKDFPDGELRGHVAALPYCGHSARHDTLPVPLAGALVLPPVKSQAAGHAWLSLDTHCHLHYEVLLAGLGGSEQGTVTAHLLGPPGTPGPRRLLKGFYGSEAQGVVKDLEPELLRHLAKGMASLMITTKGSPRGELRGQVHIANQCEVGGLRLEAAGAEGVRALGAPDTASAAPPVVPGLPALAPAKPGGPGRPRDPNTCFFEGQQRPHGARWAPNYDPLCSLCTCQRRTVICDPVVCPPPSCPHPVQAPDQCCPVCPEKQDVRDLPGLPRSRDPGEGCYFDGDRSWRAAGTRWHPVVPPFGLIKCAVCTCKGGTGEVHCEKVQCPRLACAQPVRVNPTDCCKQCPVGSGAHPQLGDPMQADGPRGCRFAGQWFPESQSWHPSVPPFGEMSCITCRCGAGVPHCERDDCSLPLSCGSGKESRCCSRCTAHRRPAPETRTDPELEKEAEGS
Test: SPR; tolloid fragments immobilised on a GLC chip by amine coupling, ΔN-chordin injected as analyte at increasing concentrations; ProteOn XPR36; 10 mM HEPES, 150 mM NaCl, 2 mM CaCl2, 0.05% Tween 20, pH 7.4, 25 °C; 1:1 Langmuir model; triplicate
Conditions: both partners purified
READOUT: Kd (nM)
The reply should be a number in nM, with the unit left off.

Some solved entries appear below for comparison.
BINDER	Kd [nM]
TLL2 CUB4-CUB5 (domain or fragment, human, UniProt Q9Y6L7 776-1005, looked up, mammalian tolloid like-2 (TLL-2), human; domains CUB4 and CUB5; Cloned at OPPF-UK in pOPINTTGneo; also called TLL2-C4C5; C4C5 from TLL-2) CAHKISSVEGTLASPNWPDKYPSRRECTWNISSTAGHRVKLTFNEFEIEQHQECAYDHLEMYDGPDSLAPILGRFCGSKKPDPTVASGSSMFLRFYSDASVQRKGFQAVHSTECGGRLKAEVQTKELYSHAQFGDNNYPSEARCDWVIVAEDGYGVELTFRTFEVEEEADCGYDYMEAYDGYDSSAPRLGRFCGSGPLEEIYSAGDSLMIRFRTDDTINKKGFHARYTST	0.25
TLL1 CUB1-CUB2-EGF1 (domain or fragment, UniProt O43897 349-615, looked up, mammalian tolloid like-1 (TLL-1); domains CUB1, CUB2 and EGF1; Cloned at OPPF-UK in pOPINTTGneo; also called TLL1-C1C2E1; C1C2E1 from TLL-1) CGETLQESNGNLSSPGFPNGYPSYTHCIWRVSVTPGEKIVLNFTTMDLYKSSLCWYDYIEVRDGYWRKSPLLGRFCGDKLPEVLTSTDSRMWIEFRSSSNWVGKGFAAVYEAICGGEIRKNEGQIQSPNYPDDYRPMKECVWKITVSESYHVGLTFQSFEIERHDNCAYDYLEVRDGTSENSPLIGRFCGYDKPEDIRSTSNTLWMKFVSDGTVNKAGFAANFFKEEDECAKPDRGGCEQRCLNTLGSYQCACEPGYELGPDRRSCE	0.057
TLL2 CUB1-CUB2-EGF1 (domain or fragment, human, UniProt Q9Y6L7 351-617, looked up, mammalian tolloid like-2 (TLL-2), human; domains CUB1, CUB2 and EGF1; Cloned at OPPF-UK in pOPINTTGneo; also called TLL2-C1C2E1; C1C2E1 from TLL-2) CGETLQDTTGNFSAPGFPNGYPSYSHCVWRISVTPGEKIVLNFTSMDLFKSRLCWYDYVEVRDGYWRKAPLLGRFCGDKIPEPLVSTDSRLWVEFRSSSNILGKGFFAAYEATCGGDMNKDAGQIQSPNYPDDYRPSKECVWRITVSEGFHVGLTFQAFEIERHDSCAYDYLEVRDGPTEESALIGHFCGYEKPEDVKSSSNRLWMKFVSDGSINKAGFAANFFKEVDECSWPDHGGCEHRCVNTLGSYKCACDPGYELAADKKMCE	0.247

Q: Please report the measured Kd for mTLD CUB4-CUB5 (domain or fragment, UniProt P13497 747-976, looked up, mammalian tolloid (mTLD), product of the Bmp1 gene; domains CUB4 and CUB5; Cloned at OPPF-UK in pOPINTTGneo; also called mTLD-C4C5; C4C5 from mTLD) CDHKVTSTSGTITSPNWPDKYPSKKECTWAISSTPGHRVKLTFMEMDIESQPECAYDHLEVFDGRDAKAPVLGRFCGSKKPEPVLATGSRMFLRFYSDNSVQRKGFQASHATECGGQVRADVKTKDLYSHAQFGDNNYPGGVDCEWVIVAEEGYGVELVFQTFEVEEETDCGYDYMELFDGYDSTAPRLGRYCGSGPPEEVYSAGDSVLVKFHSDDTITKKGFHLRYTST
A: 0.19

Q: Quote Kd reported for mTLD CUB1-CUB2-EGF1 (domain or fragment, UniProt P13497 322-588, looked up, mammalian tolloid (mTLD), product of the Bmp1 gene; domains CUB1, CUB2 and EGF1 (shared with BMP-1); Cloned at OPPF-UK in pOPINTTGneo; also called mTLD-C1C2E1; C1C2E1 from mTLD/BMP1) CGETLQDSTGNFSSPEYPNGYSAHMHCVWRISVTPGEKIILNFTSLDLYRSRLCWYDYVEVRDGFWRKAPLRGRFCGSKLPEPIVSTDSRLWVEFRSSSNWVGKGFFAVYEAICGGDVKKDYGHIQSPNYPDDYRPSKVCIWRIQVSEGFHVGLTFQSFEIERHDSCAYDYLEVRDGHSESSTLIGRYCGYEKPDDIKSTSSRLWLKFVSDGSINKAGFAVNFFKEVDECSRPNRGGCEQRCLNTLGSYKCSCDPGYELAPDKRRCE please.
A: 0.278

Q: Give recorded Kd. TLL1 CUB4-CUB5 (domain or fragment, UniProt O43897 774-1003, looked up, mammalian tolloid like-1 (TLL-1); domains CUB4 and CUB5; Cloned at OPPF-UK in pOPINTTGneo; also called TLL1-C4C5; C4C5 from TLL-1) CEQKIHSPSGLITSPNWPDKYPSRKECTWEISATPGHRIKLAFSEFEIEQHQECAYDHLEVFDGETEKSPILGRLCGNKIPDPLVATGNKMFVRFVSDASVQRKGFQATHSTECGGRLKAESKPRDLYSHAQFGDNNYPGQVDCEWLLVSERGSRLELSFQTFEVEEEADCGYDYVELFDGLDSTAVGLGRFCGSGPPEEIYSIGDSVLIHFHTDDTINKKGFHIRYKSI
A: 0.056
